Biological target: T1, HLA-A*0201 molecule on human T2 cells (human)
T1 construct: read out with anti-HLA-A2 antibody BB7.2-PE; also called HLA-A2
Assay: T2 cells expressing HLA-A*0201, anti-HLA-A2-PE, FACS
Measured Concentration of peptide that induces 20% of HLA-A2 expression, listed per entry.
Form entry: value (µM) — number only.

# example entries with known answers
VLEELLWFI (Fragment of human TYMS) [TYMS-H]
4.1
LLLSAALSV [CHI3L1B]
3.6
SMFRVLIGT (Fragment of human EZH2) [EZH2-H2]
39.2
LMDLSTTEV [FOXM1-B2]
6.7

Request: Given the entry FLVEDETVI [EZH2-B] , report its measured Concentration of peptide that induces 20% of HLA-A2 expression.
Response: 8.8

Request: Try this binder too: ILDEAYVRV [EGFR-B]
Response: 3.1

Request: Then what about the binder FMLGEFLKL [BIRC5-B1] ?
Response: 2.7

Request: Check GLLGEFLQI (also called B1RC5-B3) [BIRC5-B3] too.
Response: 22.9

Data origin: patent US20210113678A1
